- Tested on: A. baumannii ATCC15308
- ASSAY DETAILS: MIC determination, broth microdilution (CLSI)
- Assay type: cell-based
- CONDITIONS: Acinetobacter baumannii, ATCC15308, strain 9
OBSERVATION TYPE: MIC (µg/mL)
Expressed in µg/mL, but write only the number.

CC1(C)[C@H](NC(=O)/C(=N\OCCOc2ccc(C3=NCC(CN)N3)cc2)c2csc(N)n2)C(=O)N1OS(=O)(=O)O (some centres unmarked) = 1
CC1(C)[C@H](NC(=O)/C(=N\OCCOc2ccc(C(=N)N)nc2)c2csc(N)n2)C(=O)N1OS(=O)(=O)O = 1
C[C@H]1[C@H](NC(=O)/C(=N\OCCOc2ccc(C(=N)NCCN)cc2)c2csc(N)n2)C(=O)N1OCS(=O)(=O)O = 8
C[C@H]1[C@H](NC(=O)/C(=N\OCCOc2ccc(C(=N)N)cn2)c2csc(N)n2)C(=O)N1S(=O)(=O)O = 1
C[C@H]1[C@H](NC(=O)/C(=N\OCCOc2ccc(CC(=N)N)cc2)c2csc(N)n2)C(=O)N1S(=O)(=O)O = 2
C[C@H]1[C@H](NC(=O)/C(=N\OCCOc2ccc(NC(=N)N)cc2)c2csc(N)n2)C(=O)N1S(=O)(=O)O = 2
CC1(C)[C@H](NC(=O)/C(=N\OCCOc2ccc(C(=N)NCc3ccccn3)cc2)c2csc(N)n2)C(=O)N1OS(=O)(=O)O = 4
CC1(C)[C@H](NC(=O)/C(=N\OCCOc2ccc(C(=N)NC3CCNCC3)cc2)c2csc(N)n2)C(=O)N1OS(=O)(=O)O = 0.5
C[C@H]1[C@H](NC(=O)/C(=N\OCCOc2cccc(C(=N)N)c2)c2csc(N)n2)C(=O)N1S(=O)(=O)O = 4
Cc1sc(C(=N)N)nc1OCCO/N=C(\C(=O)N[C@@H]1C(=O)N(OS(=O)(=O)O)C1(C)C)c1csc(N)n1 = 2

Lookup: MIC for `CC1(C)[C@H](NC(=O)/C(=N\O[C@H](COc2ccc(C(=N)NC(CN)CN)cc2)C(=O)O)c2csc(N)n2)C(=O)N1OS(=O)(=O)O` ?
Found: 32

Lookup: MIC for `CC1(C)[C@H](NC(=O)/C(=N\O[C@@H](COc2ccc(C(=N)N[C@@H]3CCCNC3)cc2)C(=O)O)c2csc(N)n2)C(=O)N1OS(=O)(=O)O` ?
Found: 2

Lookup: MIC for `C[C@H]1[C@H](NC(=O)/C(=N\OCCOCc2cc(C(=N)N)cs2)c2csc(N)n2)C(=O)N1S(=O)(=O)O` ?
Found: 4

Lookup: MIC for `CC(=N)N1CC[C@H](NC(=N)c2ccc(OCCO/N=C(\C(=O)N[C@@H]3C(=O)N(OS(=O)(=O)O)C3(C)C)c3csc(N)n3)cc2)C1` ?
Found: 0.5

Lookup: MIC for `CC1(C)[C@H](NC(=O)/C(=N\OCCOc2ccnc(C(=N)N)c2)c2csc(N)n2)C(=O)N1OS(=O)(=O)O` ?
Found: 2

Lookup: MIC for CC1(C)[C@H](NC(=O)/C(=N\OC(COc2ccc(C(=N)N)cc2)CC(=O)O)c2csc(N)n2)C(=O)N1OS(=O)(=O)O (mixture of isomers) ?
Found: 16

Lookup: MIC for `C[C@@H]1[C@H](NC(=O)/C(=N\OCCOc2ccc(C(=N)N)cc2)c2csc(N)n2)C(=O)N1OS(=O)(=O)O` ?
Found: 8

Lookup: MIC for `C[C@H]1[C@H](NC(=O)/C(=N\OCCOc2ccc(C(=N)N)cc2Cl)c2csc(N)n2)C(=O)N1S(=O)(=O)O` ?
Found: 2

Lookup: MIC for `C[C@H]1[C@H](NC(=O)/C(=N\OCCOc2ccc(C(=N)N)cc2Br)c2csc(N)n2)C(=O)N1S(=O)(=O)O` ?
Found: 4

Lookup: MIC for `C[C@H]1[C@H](NC(=O)/C(=N\OCCOc2ccc(C(=N)N)cc2)c2nsc(N)n2)C(=O)N1S(=O)(=O)O` ?
Found: 1

Lookup: MIC for `CC1(C)[C@H](NC(=O)/C(=N\O[C@@H](COc2ccc(C(=N)NC3CNC3)cc2)C(=O)O)c2csc(N)n2)C(=O)N1OS(=O)(=O)O` ?
Found: 1

Lookup: MIC for `CC1(C)[C@H](NC(=O)/C(=N\OCCOc2ccc(C(=N)N)nn2)c2csc(N)n2)C(=O)N1OS(=O)(=O)O` ?
Found: 2
